system: MDA-MB-231; test: Cytotoxicity against human MDA-MB-231 cells assessed as viable cells at 5 uM after 72 hrs by MTT assay in absence of serum relative to control; format: functional; conditions: MDA-MB-231, 72 h, read-out: Activity
measuredEndpoint: viability at 5 µM

CC1(C)CC(NCCCO)=Nc2ccc(Cl)cc21 | 84.2%
CC1(C)CC(NCCCN2CCOCC2)=Nc2ccc(Cl)cc21 | 70.3%
CNC1=Nc2ccc(Cl)cc2C(C)(C)C1 | 92.3%
CC1(C)CC(=S)Nc2ccc(Cl)cc21 | 94.3%
CC1(C)CC(N)=Nc2ccc(Cl)cc21 | 81%

Determine from records and report viability at 5 µM for CN(C)CCCNC1=Nc2cc(Cl)ccc2C(C)(C)C1 46.3%

The measured values listed here are drawn from ChEMBL document CHEMBL2396583.
